From: BigSolDB 2.1

Conditions: in water, 298.1 K
MEASURED_QUANTITY: solubility (mole fraction)
API doc: respond with a numeric literal and nothing else, no unit.

State the recorded solubility (mole fraction) for this entry: CC(C)(C)CC(C)(C)c1ccc(O)cc1 1.32e-06

And for CCCCCCCCc1ccc(O)cc1 ? 2.9e-07

And for CCCCCCCCCc1ccc(O)cc1 ? 4e-08

----------
Provide the reported solubility (mole fraction) of each item.
Conditions: in water, 303.1 K
API doc: respond with a numeric literal and nothing else, no unit.

State the recorded solubility (mole fraction) for this entry: CCCCCCCCCc1ccc(O)cc1 5e-08

And for CC(C)(C)CC(C)(C)c1ccc(O)cc1 ? 1.55e-06

And for CCCCCCCCc1ccc(O)cc1 ? 3.4e-07
